Experiment: drug combination growth inhibition, ovarian cancer – cell-based, oncology-focused library, rucaparib conditional, profiling panel (AID 1508598)
Conditions: patient-derived ovarian cancer cells, CellTiter-Glo viability, 144 h; at 1.25 µM; OCI-P5x cells; without rucaparib; stronger effect = lower value
*1 amine or outer side, *2 acyl side, *3 side chain or, on linkers, in order; H or OH if unused. Where a SMILES comes first, the peptide text is derived from it. Bridges are numbered along the chain shown (N, C = ends). Roman numbers before positions name the chains, in order. [ ]: non-standard residue; d: D form. The star is where a group is joined. Hexamethylenediamine = C(CCCN[*:2])CCN[*:1]; Dip = N[C@H](C(=O)O)C(c1ccccc1)c1ccccc1; Chg = N[C@H](C(=O)O)C1CCCCC1; NMeA = CN[C@@H](C)C(=O)O; Cbz = O=C(OCc1ccccc1)*; CH2F = FC*

{"Molecule": "COc1ccc(C2=N[C@H](c3ccc(Cl)cc3)[C@@H](c3ccc(Cl)cc3)N2C(=O)N2CCNC(=O)C2)c(OC(C)C)c1", "viability (%)": 98}
{"Molecule": "CC(=O)OCC(=O)[C@]1(O)[C@H](C)C[C@H]2[C@@H]3CCC4=CC(=O)C=C[C@]4(C)[C@]3(F)[C@H](O)C[C@@]21C", "viability (%)": 94.3}
{"Molecule": "COC1=C2C[C@H](C)C[C@@H](OC)[C@H](O)[C@H](C)/C=C(\\C)[C@H](OC(N)=O)[C@@H](OC)/C=C/C=C(\\C)C(=O)NC(=CC1=O)C2=O", "viability (%)": 3.95}
{"Molecule": "CC#C[C@@]1(O)CC[C@H]2[C@@H]3CCC4=CC(=O)CCC4=C3[C@H](c3ccc(N(C)C)cc3)C[C@@]21C", "viability (%)": 91}
{"Molecule": "CN[C@@H](C)C(=O)N[C@H](C(=O)N1CCC[C@H]1C(=O)N[C@H](C(=O)NCCCCCCNC(=O)[C@@H](NC(=O)[C@@H]1CCCN1C(=O)[C@@H](NC(=O)[C@H](C)NC)C1CCCCC1)C(c1ccccc1)c1ccccc1)C(c1ccccc1)c1ccccc1)C1CCCCC1 (I: H-[NMeA][Chg]P[Dip] / II: H-[NMeA][Chg]P[Dip]; linker I:C-II:C via Hexamethylenediamine)", "viability (%)": 21.5}
{"Molecule": "COc1cccc2c1C(=O)c1c(O)c3c(c(O)c1C2=O)C[C@@](O)(C(=O)CO)C[C@H]3O[C@H]1C[C@H](N)[C@H](O)[C@H](C)O1", "viability (%)": 13.8}
{"Molecule": "C[C@H]1C[C@H]2[C@@H]3CCC4=CC(=O)C=C[C@]4(C)[C@@H]3C(=O)C[C@]2(C)[C@]1(O)C(=O)CO", "viability (%)": 130}
{"Molecule": "Cc1cc([N+](=O)[O-])ccc1NS(=O)(=O)c1cc(Cl)ccc1Cl", "viability (%)": 89.4}
{"Molecule": "Cc1[nH]c(C=C2C(=O)Nc3ccc(S(=O)(=O)N(C)c4cccc(Cl)c4)cc32)c(C)c1C(=O)N1CCN(C)CC1", "viability (%)": 107}
{"Molecule": "O=C1[C@H](CC[C@H](O)c2ccc(F)cc2)[C@H](c2ccc(O)cc2)N1c1ccc(F)cc1", "viability (%)": 96.4}
{"Molecule": "CO[C@H]1C[C@H]2CC[C@@H](C)[C@@](O)(O2)C(=O)C(=O)N2CCCC[C@H]2C(=O)O[C@H]([C@H](C)C[C@@H]2CC[C@H](OP(C)(C)=O)[C@H](OC)C2)CC(=O)[C@H](C)/C=C(\\C)[C@@H](O)[C@@H](OC)C(=O)[C@H](C)C[C@H](C)/C=C/C=C/C=C/1C", "viability (%)": 60.8}
{"Molecule": "CCNC(=O)c1noc(-c2cc(Cl)c(O)cc2O)c1-c1ccc(OC)cc1", "viability (%)": 4.76}
{"Molecule": "CCC1=CC2CN(C1)Cc1c([nH]c3ccccc13)[C@@](C(=O)OC)(c1cc3c(cc1OC)N(C)[C@H]1[C@@](O)(C(=O)OC)[C@H](OC(C)=O)[C@]4(CC)C=CCN5CC[C@@]31[C@H]54)C2 (stereo not given in full)", "viability (%)": 11.4}
{"Molecule": "CC(C)CC(CC(=O)NO)C(=O)N[C@@H](Cc1ccc2ccccc2c1)C(=O)N[C@@H](C)C(=O)NCCN (stereo not given in full)", "viability (%)": 86}
{"Molecule": "C[C@@H]1C[C@H]2[C@@H]3CCC4=CC(=O)C=C[C@]4(C)[C@]3(F)[C@H](O)C[C@]2(C)[C@]1(O)C(=O)CO", "viability (%)": 101}
{"Molecule": "COc1cc2c(cc1O)CC[C@@H]1[C@H]2CC[C@]2(C)[C@H](O)CC[C@@H]12", "viability (%)": 66.5}
{"Molecule": "Nc1ncn([C@@H]2O[C@H](CO)[C@@H](O)[C@@H]2O)c(=O)n1", "viability (%)": 111}
{"Molecule": "COC(=O)C[C@H](NC(=O)[C@H](C)NC(=O)[C@@H](NC(=O)OCc1ccccc1)C(C)C)C(=O)CF (Cbz-Val-Ala-Asp(OMe)-CH2F)", "viability (%)": 106}
{"Molecule": "O=C(NCC1(c2nc(-c3ccccc3)cs2)CCOCC1)c1cccc(-c2noc(C(F)(F)F)n2)c1", "viability (%)": 89.8}
{"Molecule": "CC(=O)O[C@@]1(C(C)=O)CC[C@H]2[C@@H]3C=C(C)C4=CC(=O)CC[C@]4(C)[C@@H]3CC[C@@]21C", "viability (%)": 82.2}

====

Test: drug combination growth inhibition, ovarian cancer – cell-based, oncology-focused library, rucaparib conditional, profiling panel (AID 1508598)
Settings: patient-derived ovarian cancer cells, CellTiter-Glo viability, 144 h; at 0.0195 µM; OCI-P5x cells; with rucaparib 20 µM; 100% = cells with rucaparib alone
Calls of active or inactive are those of the source.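 Rule for the calls: active = normalized viability below 100% at a tested concentration; inactive = the rest.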
Outcomes: active, inactive

{"Molecule": "C=CS(=O)(=O)NC1CCN(C(=O)CNc2cc(I)c(Cl)cc2OC)CC1", "Label": "inactive"}
{"Molecule": "CC(C)C[C@H](NP(=O)(O)O[C@@H]1O[C@@H](C)[C@H](O)[C@@H](O)[C@H]1O)C(=O)N[C@@H](Cc1c[nH]c2ccccc12)C(=O)O", "Label": "inactive"}
{"Molecule": "COc1cc([C@H]2c3cc4c(cc3[C@@H](O[C@@H]3O[C@@H]5CO[C@@H](c6cccs6)O[C@H]5[C@H](O)[C@H]3O)[C@H]3COC(=O)[C@H]23)OCO4)cc(OC)c1O", "Label": "inactive"}
{"Molecule": "CC1=C(/C=C/C(C)=C\\C=C\\C(C)=C/C(=O)O)C(C)(C)CCC1", "Label": "active"}
{"Molecule": "Cc1cc(C)c(-c2csc(NC(=O)c3ccccc3)n2)c(C)c1", "Label": "inactive"}
{"Molecule": "Cc1cc(C)c(S(=O)(=O)n2cc(C)cc2C)c(C)c1", "Label": "inactive"}
{"Molecule": "CCOC(=O)NCCCC(=O)NCCc1ccccc1", "Label": "active"}
{"Molecule": "CCOc1ccc(Cc2cc([C@@H]3O[C@H](CO)[C@@H](O)[C@H](O)[C@@H]3O)ccc2Cl)cc1", "Label": "inactive"}
{"Molecule": "Nc1nonc1C(=Nc1ccc(F)c(Cl)c1)NO", "Label": "active"}

====

Assay: viability loss with induced miR-34 in A549 – imaging, A549 dox-inducible miR-34, nuclei and caspase counts, primary screen (AID 1347080)
Conditions: A549 miR-34 inducible, Hoechst nuclei count, 48 h; measured here: total cells with miR-34 induction; stronger effect = lower value
Below, each entry is listed alongside its reported cell count.

{"Molecule": "O=C1CCNC(=O)N1", "cell count": 8710}
{"Molecule": "CCOc1ccc(C=C2NCCc3cc(OCC)c(OCC)cc32)cc1OCC", "cell count": 4950}
{"Molecule": "CC[C@H]1OC(=O)[C@H](C)[C@@H](O[C@H]2C[C@@](C)(OC)[C@@H](O)[C@H](C)O2)[C@H](C)[C@@H](O[C@@H]2O[C@H](C)C[C@H](N(C)C)[C@H]2O)[C@](C)(O)C[C@@H](C)/C(=N/OCOCCOC)[C@H](C)[C@@H](O)[C@]1(C)O", "cell count": 9160}
{"Molecule": "CC(C)C[C@H](NC(=O)[C@H](O)[C@H](N)Cc1ccccc1)C(=O)O", "cell count": 10100}
{"Molecule": "CCCCC[C@@H](O)/C=C/[C@H]1[C@H](C/C=C\\CCCC(=O)O)C(=O)C[C@@H]1O", "cell count": 4850}
{"Molecule": "CC(=O)NCC(=O)N1CCN(Cc2ccc3c(c2)OCO3)C(=O)C1", "cell count": 8860}
{"Molecule": "C#CCn1c(=O)c2c(ncn2C)n(C)c1=O", "cell count": 10100}
{"Molecule": "CCC1OC(=O)C(C)C(OC2C[C@@](C)(OC)C(O)C(C)O2)C(C)C(OC2OC(C)CC(N(C)C)C2O)[C@](C)(O)CC(C)C(=NOCOCCOC)C(C)C(O)[C@]1(C)O (stereo partly drawn)", "cell count": 9240}
